- procedure-details: Rat tissue distribution after i.v. bolus
- Format: in vivo, Sprague-Dawley rats
- run-conditions: rat, lung, iv; male Sprague-Dawley rats, single 5 mg/kg i.v. bolus, t = 120 h, tissue homogenate, LC-MS/MS, n = 3/time point; read-out: Tissue/plasma AUC0–t ratio, lung
Starred links: 1 amine or outer side, 2 acyl side, 3 side chain; linkers in the order of their positions; H or OH if unused. Positions of bridges follow the written chain, without caps; N, C: chain ends. Non-standard residues stand in square brackets, D forms with d. Residues, ends and D or L forms follow the SMILES beside them. *: point of attachment. Orn(4R-OH,5R-OCH2CH2NMe3+) = C[N+](C)(C)CCO[C@@H](N[*:3])[C@H](O)C[C@H](N[*:1])C(=O)[*:2]; pTerphenylCO(4''-OnC5H11) = CCCCCOc1ccc(-c2ccc(-c3ccc(C(=O)*)cc3)cc2)cc1; hTyr(3S-OH,4S-OH) = N[C@H](C(=O)O)[C@H](O)[C@@H](O)c1ccc(O)cc1; Pro(3S-OH,4S-Me) = C[C@H]1CN[C@H](C(=O)O)[C@H]1O; Hyp = O=C(O)[C@@H]1C[C@@H](O)CN1
observable: Kp

INSERT INTO results (molecule, recorded_result) VALUES
  ('CCCCCOc1ccc(-c2ccc(-c3ccc(C(=O)N[C@H]4C[C@@H](O)[C@@H](OCC[N+](C)(C)C)NC(=O)[C@@H]5[C@@H](O)[C@@H](C)CN5C(=O)[C@H]([C@@H](C)O)NC(=O)[C@H]([C@H](O)[C@@H](O)c5ccc(O)cc5)NC(=O)[C@@H]5C[C@@H](O)CN5C(=O)[C@H]([C@@H](C)O)NC4=O)cc3)cc2)cc1 [CD101] ({pTerphenylCO(4''''-OnC5H11)}-[Orn(4R-OH,5R-OCH2CH2NMe3+)]T[Hyp][hTyr(3S-OH,4S-OH)]T[Pro(3S-OH,4S-Me)]; lactam 1-C)', 4.33);

----------
- procedure-details: Rat pharmacokinetics, i.v. bolus
- Assay type: in vivo, Sprague-Dawley rats
- run-conditions: rat, in vivo, iv, 5 mg/kg, male Sprague-Dawley rats, single 5 mg/kg slow i.v. bolus, plasma, LC-MS/MS, noncompartmental, n = 3 to 5/dose
Starred links: 1 amine or outer side, 2 acyl side, 3 side chain; linkers in the order of their positions; H or OH if unused. Positions of bridges follow the written chain, without caps; N, C: chain ends. Non-standard residues stand in square brackets, D forms with d. Residues, ends and D or L forms follow the SMILES beside them. *: point of attachment. Orn(4R-OH,5R-OCH2CH2NMe3+) = C[N+](C)(C)CCO[C@@H](N[*:3])[C@H](O)C[C@H](N[*:1])C(=O)[*:2]; pTerphenylCO(4''-OnC5H11) = CCCCCOc1ccc(-c2ccc(-c3ccc(C(=O)*)cc3)cc2)cc1; hTyr(3S-OH,4S-OH) = N[C@H](C(=O)O)[C@H](O)[C@@H](O)c1ccc(O)cc1; Pro(3S-OH,4S-Me) = C[C@H]1CN[C@H](C(=O)O)[C@H]1O; Hyp = O=C(O)[C@@H]1C[C@@H](O)CN1
observable: AUC(0-inf) (µg·h/mL)

INSERT INTO measurements (compound, observable, unit_tag, recorded_result) VALUES
  ('CCCCCOc1ccc(-c2ccc(-c3ccc(C(=O)N[C@H]4C[C@@H](O)[C@@H](OCC[N+](C)(C)C)NC(=O)[C@@H]5[C@@H](O)[C@@H](C)CN5C(=O)[C@H]([C@@H](C)O)NC(=O)[C@H]([C@H](O)[C@@H](O)c5ccc(O)cc5)NC(=O)[C@@H]5C[C@@H](O)CN5C(=O)[C@H]([C@@H](C)O)NC4=O)cc3)cc2)cc1 [CD101] ({pTerphenylCO(4''''-OnC5H11)}-[Orn(4R-OH,5R-OCH2CH2NMe3+)]T[Hyp][hTyr(3S-OH,4S-OH)]T[Pro(3S-OH,4S-Me)]; lactam 1-C)', 'AUC(0-inf)', 'µg·h/mL', 183);
